# Organism: Rattus norvegicus
# assay_explanation: Open TG-GATES - Regimen: Daily Repeat
# Format: toxicity, organism-based, Sprague-Dawley
# Set-up: regimen Daily Repeat, gender Male, age 6 weeks
# measurement_conditions: in vivo, po, 0 mg/kg, […], tissue Blood, route gavage, dose level Control, time 14 day
property_label: Mono (%)
Give just the number in %; leave the unit off.

[
  {
    "molecule": "CC(N)=O [ACETAMIDE]",
    "Mono (%)": 3
  },
  {
    "molecule": "CC(C)Cc1ccc(C(C)C(=O)O)cc1 (stereo not drawn)",
    "Mono (%)": 2
  }
]

Need Mono, item CC(CCc1ccccc1)NCC(O)c1ccc(O)c(C(N)=O)c1 (stereo not drawn)
2.8

Given the entry CC(=O)Nc1ccc2c(c1)Cc1ccccc1-2 , report its measured Mono.
2.2

If you can, please state the reported Mono value of CC(=O)N1CCN(c2ccc(OCC3COC(Cn4ccnc4)(c4ccc(Cl)cc4Cl)O3)cc2)CC1 (stereo not drawn) .
1.6

I have this molecule here, O=C(O)COc1nn(Cc2ccccc2)c2ccccc12 , and I need its recorded Mono.
7

# get_value(readout='Mono', item= CC[C@@H](CO)NCCN[C@@H](CC)CO )
2.4

Can you look up the measured Mono of CCN(CC)N=O for me?
1.8

* * *

# Species on record: Rattus norvegicus
# assay_explanation: Open TG-GATES - Regimen: Daily Repeat
# Format: toxicity, organism-based, Sprague-Dawley
# Set-up: regimen Daily Repeat, gender Male, age 6 weeks
# measurement_conditions: in vivo, po, 0 mg/kg, 72 h, tissue Plasma, route gavage, dose level Control, time 3 day
I'd appreciate it if you marked entries t when TBIL is lower than 0.01 mg/dL and f when it is not.

Sample answers from the record:
[
  {
    "compound": "CC(=O)Nc1ccc2c(c1)Cc1ccccc1-2 [2-ACETYLAMINOFLUORENE]",
    "answer_label": "f"
  },
  {
    "compound": "CC(CCc1ccccc1)NCC(O)c1ccc(O)c(C(N)=O)c1 (stereo not drawn) [LABETALOL]",
    "answer_label": "f"
  },
  {
    "compound": "CCN(CC)N=O [N-NITROSODIETHYLAMINE]",
    "answer_label": "f"
  }
]

Confirm or reject: TBIL of CC(=O)N1CCN(c2ccc(OCC3COC(Cn4ccnc4)(c4ccc(Cl)cc4Cl)O3)cc2)CC1 (stereo not drawn) [KETOCONAZOLE] lies strictly below 0.01 mg/dL
f

Find out if reported TBIL for CC(C)Cc1ccc(C(C)C(=O)O)cc1 (stereo not drawn) [IBUPROFEN] is less than 0.01 mg/dL
t

Consider the compound CC(N)=O [ACETAMIDE] . Is its TBIL strictly less than 0.01 mg/dL?
t

Threshold test, TBIL < 0.01 mg/dL: O=C(O)COc1nn(Cc2ccccc2)c2ccccc12 [BENDAZAC]
f

Would you kindly verify if TBIL of CC[C@@H](CO)NCCN[C@@H](CC)CO [ETHAMBUTOL] is strictly less than 0.01 mg/dL?
t

* * *

# Species: Rattus norvegicus
# assay_explanation: Open TG-GATES - Regimen: Single
# Format: toxicity, organism-based, Sprague-Dawley
# Set-up: regimen Single, gender Male, age 6 weeks
# measurement_conditions: in vivo, po, 0 mg/kg, 9 h, tissue Blood, route gavage, dose level Control
property_label: MCH (pg)
# number only, unit pg dropped from output

// known answers, use as guide
[
  {
    "compound": "CCN(CC)N=O",
    "unit_descriptor": "pg",
    "MCH": 21.6
  },
  {
    "compound": "CC(=O)N1CCN(c2ccc(OCC3COC(Cn4ccnc4)(c4ccc(Cl)cc4Cl)O3)cc2)CC1 (configuration not stated)",
    "unit_descriptor": "pg",
    "MCH": 21.1
  },
  {
    "compound": "O=C(O)COc1nn(Cc2ccccc2)c2ccccc12",
    "unit_descriptor": "pg",
    "MCH": 22
  }
]

Now look at this one.
Any idea what MCH was measured for CC[C@@H](CO)NCCN[C@@H](CC)CO ?
21.3
